assayed.system: human wild type STING (WT STING) (Homo sapiens, UniProt Q86WV6, H232R)
Sequence (Q86WV6 whole entry H232R): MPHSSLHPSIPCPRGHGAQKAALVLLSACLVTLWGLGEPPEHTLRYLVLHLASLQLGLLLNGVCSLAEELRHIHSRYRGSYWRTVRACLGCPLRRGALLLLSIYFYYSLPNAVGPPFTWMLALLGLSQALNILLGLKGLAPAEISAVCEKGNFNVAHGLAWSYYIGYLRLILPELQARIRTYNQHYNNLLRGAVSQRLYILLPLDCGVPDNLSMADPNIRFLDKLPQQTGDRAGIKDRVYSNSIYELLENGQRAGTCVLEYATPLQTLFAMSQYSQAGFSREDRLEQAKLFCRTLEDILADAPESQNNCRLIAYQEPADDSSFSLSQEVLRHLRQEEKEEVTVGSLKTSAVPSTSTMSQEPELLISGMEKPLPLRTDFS
experimental.protocol: Digitonin assay using 293T wtSTING-FL reporter cells
Assay type: cell-based
condition.info: 293T wtSTING-FL cells; compounds in Digitonin buffer 30 minutes, then 5 hours in medium; ISRE firefly luciferase
outcome.measure: pEC50
// scale note: pEC50 = -log10(conc_M); give the bare number

Field: example entries. Status: answers known.
molecule | outcome.measure | value.reported
Nc1ncnc2c1ncn2[C@@H]1O[C@@H]2COP(=O)(S)O[C@@H]3[C@H](F)[C@@H](COP(=O)(O)CO[C@H]2[C@H]1F)O[C@H]3n1cnc2c(=O)[nH]cnc21 (single isomer, unassigned) [Compound 13b] | pEC50 | 8.00
Nc1nc2c(ncn2[C@@H]2O[C@@H]3COP(=O)(O)CO[C@H]4[C@@H](F)[C@H](n5cnc6c(N)ncnc65)O[C@@H]4COP(=O)(S)O[C@@H]2[C@@H]3F)c(=O)[nH]1 (single isomer, unassigned) [Compound 11a] | pEC50 | 7.52
Nc1nc2c(ncn2[C@@H]2O[C@@H]3COP(=O)(S)CO[C@H]4[C@@H](F)[C@H](n5cnc6c(N)ncnc65)O[C@@H]4COP(=O)(S)O[C@@H]2[C@@H]3F)c(=O)[nH]1 (single isomer, unassigned) [Compound 17d] | pEC50 | 7.92
Nc1ncnc2c1ncn2[C@@H]1O[C@@H]2COP(=O)(S)O[C@@H]3[C@H](F)[C@@H](COP(=O)(S)CO[C@H]2[C@H]1F)O[C@H]3n1cnc2c(N)ncnc21 (single isomer, unassigned) [Compound 30b] | pEC50 | 6.40
Nc1nc2c(ncn2[C@@H]2O[C@@H]3COP(=O)(S)CO[C@H]4[C@@H](F)[C@H](n5cnc6c(N)ncnc65)O[C@@H]4COP(=O)(S)O[C@@H]2[C@@H]3F)c(=O)[nH]1 (single isomer, unassigned) [Compound 17a] | pEC50 | 6.27

*Q* Please tell me the measured pEC50 for Nc1ncnc2c1ncn2[C@@H]1O[C@@H]2COP(=O)(S)O[C@@H]3[C@H](F)[C@@H](COP(=O)(S)CO[C@H]2[C@H]1F)O[C@H]3n1cnc2c(N)ncnc21 (single isomer, unassigned) [Compound 30c] ; system: human wild type STING (WT STING) (Homo sapiens, UniProt Q86WV6, H232R).
*A* 6.22

*Q* GET pEC50 where system = human wild type STING (WT STING) (Homo sapiens, UniProt Q86WV6, H232R) and item = Nc1nc2c(ncn2[C@@H]2O[C@@H]3COP(=O)(S)CO[C@H]4[C@@H](F)[C@H](n5cnc6c(N)ncnc65)O[C@@H]4COP(=O)(O)O[C@@H]2[C@@H]3F)c(=O)[nH]1 (single isomer, unassigned) [Compound 15a]
*A* 7.70

*Q* Lab note: human wild type STING (WT STING) (Homo sapiens, UniProt Q86WV6, H232R) assay, enter pEC50 for Nc1ncnc2c1ncn2[C@@H]1O[C@@H]2COP(=O)(O)O[C@H]3[C@@H](O)[C@H](n4cnc5c(N)ncnc54)O[C@@H]3COP(=O)(O)O[C@H]2[C@H]1O [3′3′-c-di-AMP, reference compound] here
*A* 6.52

*Q* Give pEC50 for this entry on human wild type STING (WT STING) (Homo sapiens, UniProt Q86WV6, H232R): Nc1ncnc2c1ncn2[C@@H]1O[C@@H]2COP(=O)(S)O[C@@H]3[C@H](F)[C@@H](COP(=O)(O)CO[C@H]2[C@H]1F)O[C@H]3n1cnc2c(=O)[nH]cnc21 (single isomer, unassigned) [Compound 13a]
*A* 8.05

====

Test system: peripheral blood mononuclear cell (PBMC)
experimental.protocol: Peripheral blood mononuclear cell assay
condition.info: read-out: PBMC EC50 TNF-α; compounds 1h, washed, 15 hour incubation; tumor necrosis factor-alpha level in medium; average of one to four donors
outcome.measure: pEC50
Interpret pEC50 as the negative base-10 log of the concentration measured in mol/L.

Some compounds with known pEC50 results, for comparison:
compound | pEC50
CCCCCCCCCCCCOC(=O)OCSP1(=O)OC[C@H]2O[C@@H](n3cnc4c(N)ncnc43)[C@H](F)[C@@H]2OCP(=O)(O)OC[C@H]2O[C@@H](n3cnc4c(=O)[nH]cnc43)[C@H](O1)[C@@H]2F (stereo partly shown) [Compound 58b] | 5.89
CCCCCCCCCCCCCCCC(=O)OCSP1(=O)OC[C@H]2O[C@@H](n3cnc4c(N)ncnc43)[C@H](F)[C@@H]2OCP(=O)(O)OC[C@H]2O[C@@H](n3cnc4c(=O)[nH]cnc43)[C@H](O1)[C@@H]2F (single isomer, unassigned) [Compound 64b] | 5.70

*Q* Answer with reported pEC50 of Nc1nc2c(ncn2[C@@H]2O[C@@H]3COP(=O)(O)O[C@H]4[C@@H](O)[C@H](n5cnc6c(N)ncnc65)O[C@@H]4COP(=O)(O)O[C@@H]2[C@@H]3O)c(=O)[nH]1 [2′3′-cGAMP, c[G(2′,5′)pA(3′,5′)p], reference compound]
*A* 3.68

====

assayed.system: human WT STING (Homo sapiens, UniProt Q86WV6, H232R)
Construct: truncated human WT STING or AQ STING (amino acid residues 140-343); 8xHis (N, cleaved yes); SUMO (N, cleaved yes); made in house; host or cells: E. coli Rosetta-gami B (DE3)
Sequence (Q86WV6 140-343 H232R): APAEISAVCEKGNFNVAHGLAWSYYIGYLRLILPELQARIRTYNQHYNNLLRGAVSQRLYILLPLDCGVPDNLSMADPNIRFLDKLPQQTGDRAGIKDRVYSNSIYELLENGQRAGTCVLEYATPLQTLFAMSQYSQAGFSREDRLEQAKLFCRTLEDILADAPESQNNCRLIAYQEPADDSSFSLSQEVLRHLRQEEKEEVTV
experimental.protocol: Differential Scanning Fluorimetry with WT STING
Format: binding
condition.info: thermal shift vs STING apoprotein; 150 μM CDN; truncated WT STING (residues 140-343)
Hi, to clarify the labels: true (1) covers DSF ΔTm WT STING from 20 °C upward, false (0) covers anything below 20 °C.

Example entries begin here.
compound | assayed.system | discrete.label
Nc1nc2c(ncn2[C@@H]2O[C@@H]3COP(=O)(S)CO[C@H]4[C@@H](F)[C@H](n5cnc6c(N)ncnc65)O[C@@H]4COP(=O)(S)O[C@@H]2[C@@H]3F)c(=O)[nH]1 (single isomer, unassigned) [Compound 17a] | human WT STING (Homo sapiens, UniProt Q86WV6, H232R) | false (0)
Nc1ncnc2c1ncn2[C@@H]1O[C@@H]2COP(=O)(S)O[C@@H]3[C@H](F)[C@@H](COP(=O)(O)CO[C@H]2[C@H]1F)O[C@H]3n1cnc2c(=O)[nH]cnc21 (single isomer, unassigned) [Compound 13b] | human WT STING (Homo sapiens, UniProt Q86WV6, H232R) | true (1)
Nc1nc2c(ncn2[C@@H]2O[C@@H]3COP(=O)(S)CO[C@H]4[C@@H](F)[C@H](n5cnc6c(N)ncnc65)O[C@@H]4COP(=O)(S)O[C@@H]2[C@@H]3F)c(=O)[nH]1 (single isomer, unassigned) [Compound 17c] | human WT STING (Homo sapiens, UniProt Q86WV6, H232R) | false (0)
Nc1nc2c(ncn2[C@@H]2O[C@@H]3COP(=O)(S)CO[C@H]4[C@@H](F)[C@H](n5cnc6c(N)ncnc65)O[C@@H]4COP(=O)(S)O[C@@H]2[C@@H]3F)c(=O)[nH]1 (single isomer, unassigned) [Compound 17d] | human WT STING (Homo sapiens, UniProt Q86WV6, H232R) | false (0)

*Q* Is the recorded value of DSF ΔTm WT STING equal to or greater than 20 °C for this compound? Nc1ncnc2c1ncn2[C@@H]1O[C@@H]2COP(=O)(O)O[C@H]3[C@@H](O)[C@H](n4cnc5c(N)ncnc54)O[C@@H]3COP(=O)(O)O[C@H]2[C@H]1O [3′3′-c-di-AMP, reference compound]
*A* false (0)

*Q* Exam item: decide whether the reported DSF ΔTm WT STING for Nc1nc2c(ncn2[C@@H]2O[C@@H]3COP(=O)(O)CO[C@H]4[C@@H](F)[C@H](n5cnc6c(N)ncnc65)O[C@@H]4COP(=O)(S)O[C@@H]2[C@@H]3F)c(=O)[nH]1 (single isomer, unassigned) [Compound 11b] is at least 20 °C.
*A* true (1)

*Q* Textbook exercise: given the entry Nc1nc2c(ncn2[C@@H]2O[C@@H]3COP(=O)(O)CO[C@H]4[C@@H](F)[C@H](n5cnc6c(N)ncnc65)O[C@@H]4COP(=O)(S)O[C@@H]2[C@@H]3F)c(=O)[nH]1 (single isomer, unassigned) [Compound 11a] , state whether its DSF ΔTm WT STING is greater than or equal to 20 °C.
*A* false (0)

*Q* Test whether the compound Nc1ncnc2c1ncn2[C@@H]1O[C@@H]2COP(=O)(S)O[C@@H]3[C@H](F)[C@@H](COP(=O)(O)CO[C@H]2[C@H]1F)O[C@H]3n1cnc2c(=O)[nH]cnc21 (single isomer, unassigned) [Compound 13a] records DSF ΔTm WT STING of 20 °C or higher.
*A* false (0)

*Q* Threshold query (DSF ΔTm WT STING >= 20 °C) on Nc1ncnc2c1ncn2[C@@H]1O[C@@H]2COP(=O)(O)O[C@@H]3[C@H](F)[C@@H](COP(=O)(O)CO[C@H]2[C@H]1F)O[C@H]3n1cnc2c(N)ncnc21
*A* false (0)

*Q* Exam item: decide whether the reported DSF ΔTm WT STING for Nc1nc2c(ncn2[C@@H]2O[C@@H]3COP(=O)(S)CO[C@H]4[C@@H](F)[C@H](n5cnc6c(N)ncnc65)O[C@@H]4COP(=O)(O)O[C@@H]2[C@@H]3F)c(=O)[nH]1 (single isomer, unassigned) [Compound 15b] is at least 20 °C.
*A* false (0)

*Q* Check this compound for DSF ΔTm WT STING at or above 20 °C: Nc1nc2c(ncn2[C@@H]2O[C@@H]3COP(=O)(S)CO[C@H]4[C@@H](F)[C@H](n5cnc6c(N)ncnc65)O[C@@H]4COP(=O)(O)O[C@@H]2[C@@H]3F)c(=O)[nH]1 (single isomer, unassigned) [Compound 15a]
*A* false (0)
